Origin of measurements: patent US20260365653A1

# tested on: mutEGFR (D770_N771insNPG, T790) (Homo sapiens, UniProt P00533, INS770NPG/T790M)
# Construct: exact insNPG construct not described; in-house EGFR proteins were N-terminal GST fusions from baculovirus/insect cells (borders R669-A1210 given only for WT, insSVD, insASV)
# Sequence (P00533 with tags, fused parts or gaps INS770NPG/T790M limits assumed): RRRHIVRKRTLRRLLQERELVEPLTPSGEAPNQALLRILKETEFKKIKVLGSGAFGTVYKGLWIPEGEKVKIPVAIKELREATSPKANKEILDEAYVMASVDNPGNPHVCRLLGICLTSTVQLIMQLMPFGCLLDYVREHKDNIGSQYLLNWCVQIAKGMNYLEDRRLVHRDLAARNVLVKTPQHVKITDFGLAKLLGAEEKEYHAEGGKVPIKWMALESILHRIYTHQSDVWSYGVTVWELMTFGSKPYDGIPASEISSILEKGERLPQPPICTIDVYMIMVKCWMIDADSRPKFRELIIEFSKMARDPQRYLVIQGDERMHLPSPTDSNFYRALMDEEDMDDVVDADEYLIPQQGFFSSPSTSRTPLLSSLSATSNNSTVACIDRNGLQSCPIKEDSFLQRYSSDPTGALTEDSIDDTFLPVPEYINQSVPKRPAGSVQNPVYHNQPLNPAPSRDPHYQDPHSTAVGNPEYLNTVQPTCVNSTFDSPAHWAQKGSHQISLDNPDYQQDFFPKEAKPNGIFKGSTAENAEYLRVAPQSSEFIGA
# experimental details: mutEGFR (D770_N771insNPG, T790) kinase assay
# Type: biochemical
# experimental context: Table 2a, D770_N771insNPG
# Description: The different EGFR proteins used in the biochemical kinase activity inhibition assays were generated inhouse by expression in insect cells using Baculo Virus system and subsequent purification as described in the following paragraphs. The cDNAs encoding the various protein sequences from human EGFR human (P00533) were optimized for expression in eukaryotic cells and synthesized by the GeneArt Technology at Life Technologies.
Could you please report measured IC50 for the items listed next?
Write the answer as a number in nM, unit excluded.

Ask | Please state recorded IC50 (tested on mutEGFR (D770_N771insNPG, T790) (Homo sapiens, UniProt P00533, INS770NPG/T790M)) of COCCN(C)C/C=C/C(=O)N1CCn2nc(-c3ccc(Cl)cc3)c(-c3ccncc3)c2C1 [Example 169]
Reply | 0.385

Ask | Item CN(C)C/C=C/C(=O)N1CCn2nc(-c3ccc(OC(F)(F)F)cc3)c(-c3ccncc3)c2C1 [Example 145] with mutEGFR (D770_N771insNPG, T790) (Homo sapiens, UniProt P00533, INS770NPG/T790M) - IC50?
Reply | 60.4

Ask | // map C=CC(=O)N1CCn2nc(-c3ccc(F)cc3)c(-c3ccncc3)c2C1C (racemic) [Example 239] to recorded IC50 (system: mutEGFR (D770_N771insNPG, T790) (Homo sapiens, UniProt P00533, INS770NPG/T790M))
Reply | 4.74

Ask | Recorded IC50 for C=CC(=O)N1Cc2c(-c3ccncc3)c(-c3ccc(Cl)c(C)c3)nn2C(C)(C)C1 [Example 208] with mutEGFR (D770_N771insNPG, T790) (Homo sapiens, UniProt P00533, INS770NPG/T790M), please?
Reply | 0.365

====

Would you mind telling me the reported IC50 of each entry?
# tested on: mutEGFR (D770_N771insSVD) (Homo sapiens, UniProt P00533, DUP768-770)
# Construct: GST-EGFR #3 (SVD between D770 and N771); made in house; host or cells: Sf9 insect cells (baculovirus)
# Sequence (P00533 with tags, fused parts or gaps DUP768-770): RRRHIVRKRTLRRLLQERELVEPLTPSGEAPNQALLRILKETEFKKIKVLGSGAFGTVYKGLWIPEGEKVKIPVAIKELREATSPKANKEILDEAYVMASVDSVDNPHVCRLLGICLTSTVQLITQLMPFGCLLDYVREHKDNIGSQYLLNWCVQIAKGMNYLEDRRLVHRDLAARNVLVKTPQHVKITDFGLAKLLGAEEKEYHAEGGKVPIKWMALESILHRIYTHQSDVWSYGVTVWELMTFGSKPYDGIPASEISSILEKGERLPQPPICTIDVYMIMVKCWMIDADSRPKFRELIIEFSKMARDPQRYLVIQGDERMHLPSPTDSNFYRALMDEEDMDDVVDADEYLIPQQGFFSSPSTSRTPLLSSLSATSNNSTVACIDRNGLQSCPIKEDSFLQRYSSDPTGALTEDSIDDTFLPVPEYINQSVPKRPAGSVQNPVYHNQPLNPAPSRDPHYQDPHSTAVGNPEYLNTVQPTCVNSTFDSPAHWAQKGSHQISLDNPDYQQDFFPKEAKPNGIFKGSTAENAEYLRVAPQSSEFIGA
# experimental details: Exon20-Mutant-EGFR (D770_N771insSVD) kinase assay (TR-FRET)
# Assay type: biochemical
# experimental context: mutEGFR (D770_N771insSVD) kinase assay IC50, Table 2b (from US Priority Patent Application); mutEGFR D770_N771insSVD

Ask | Item C#CC(=O)N1CCn2nc(-c3ccc(F)cc3)c(-c3ccncc3)c2C1 with mutEGFR (D770_N771insSVD) (Homo sapiens, UniProt P00533, DUP768-770) - IC50?
Reply | 0.807 nM

Ask | Give mutEGFR (D770_N771insSVD) (Homo sapiens, UniProt P00533, DUP768-770) IC50 for C=CC(=O)N1CCn2nc(Nc3ccc(F)cc3)c(-c3ccncc3)c2C1
Reply | 25.9 nM

Ask | Param readout = IC50; param system = mutEGFR (D770_N771insSVD) (Homo sapiens, UniProt P00533, DUP768-770); param query = C=CC(=O)N1CCn2nc(-c3ccc(F)cc3)c(-c3ccnc(N)c3)c2C1 ; response: value
Reply | 0.849 nM

Ask | Given the entry O=C(Nc1cc(-c2c(-c3ccc(F)cc3)nn3c2CN(C(=O)C2CO2)CC3)ccn1)C1CC1 (stereo not drawn) , what IC50 was observed with mutEGFR (D770_N771insSVD) (Homo sapiens, UniProt P00533, DUP768-770)?
Reply | 64.5 nM

Ask | Give recorded IC50 with mutEGFR (D770_N771insSVD) (Homo sapiens, UniProt P00533, DUP768-770) for the following compound: C=CC(=O)N1CCn2nc(-c3cccc(F)c3)c(-c3ccncc3)c2C1
Reply | 1.45 nM

Ask | Record C=C(F)C(=O)N1CCn2nc(-c3ccc(F)cc3)c(-c3ccncc3)c2C1 : what is its IC50 with mutEGFR (D770_N771insSVD) (Homo sapiens, UniProt P00533, DUP768-770)?
Reply | 55.7 nM

Ask | Find the measured IC50: item CC#CC(=O)N1CCn2nc(-c3ccc(F)cc3)c(-c3ccncc3)c2C1 , target or system mutEGFR (D770_N771insSVD) (Homo sapiens, UniProt P00533, DUP768-770).
Reply | 55.2 nM

Ask | Value wanted: IC50 (mutEGFR (D770_N771insSVD) (Homo sapiens, UniProt P00533, DUP768-770)) of entry C=CC(=O)N1CCn2nc(-c3ccc(F)cc3)c(-c3ccnc(Nc4ccccc4)c3)c2C1
Reply | 3.54 nM

Ask | Item CC(C)N(C)C/C=C/C(=O)N1CCn2nc(-c3ccc(F)cc3)c(-c3ccnc(NC(=O)C4CC4)c3)c2C1 with mutEGFR (D770_N771insSVD) (Homo sapiens, UniProt P00533, DUP768-770) - IC50?
Reply | 0.326 nM

Ask | Missing value: IC50, mutEGFR (D770_N771insSVD) (Homo sapiens, UniProt P00533, DUP768-770), entry C=CC(=O)N1CCn2nc(-c3ccc(F)cc3)c(-c3ccncc3OC)c2C1 . Fill in?
Reply | 37.1 nM

Ask | Form: Entry = C=CC(=O)N1CCn2nc(-c3ccc(F)cc3)c(-c3ccnc(OC)c3)c2C1 | System = mutEGFR (D770_N771insSVD) (Homo sapiens, UniProt P00533, DUP768-770) | IC50 = ____
Reply | 29.6 nM

Ask | Which IC50 is reported with mutEGFR (D770_N771insSVD) (Homo sapiens, UniProt P00533, DUP768-770) for this entry: C=CC(=O)N1CCn2nc(-c3cccc(OC)c3)c(-c3ccncc3)c2C1 ?
Reply | 2.19 nM

====

# tested on: mutEGFR (D770_N771insNPG, T790) (Homo sapiens, UniProt P00533, INS770NPG/T790M)
# Construct: exact insNPG construct not described; in-house EGFR proteins were N-terminal GST fusions from baculovirus/insect cells (borders R669-A1210 given only for WT, insSVD, insASV)
# experimental details: mutEGFR (D770_N771insNPG, T790) kinase assay
# Format: biochemical
# experimental context: Table 2a, D770_N771insNPG
Exam item: assign MET to entries whose IC50 is below 10 nM and NOT MET to entries at or above 10 nM. Note that a value of exactly 10 nM receives NOT MET.

Ask | Input C=CC(=O)N1Cc2c(-c3ccncc3)c(-c3ccc(Cl)cc3F)nn2C(C)C1 (single isomer, unassigned; isomer 1) [Example 282] ; condition: IC50 strictly below 10 nM. Does it hold?
Reply | MET

Ask | Take the compound CN(C)C/C=C/C(=O)N1CCn2nc(-c3ccc(C(F)(F)F)c(F)c3)c(-c3ccncc3)c2C1 [Example 151] and say whether its IC50 is less than 10 nM.
Reply | NOT MET

Ask | Is 10 nM strictly greater than the compound's reported IC50? compound: C=CC(=O)N1Cc2c(-c3ccncc3)c(-c3ccc(F)cc3)nn2C(CC(=O)NC)C1 (stereo not drawn) [Example 225]
Reply | NOT MET

Ask | Does Cc1ccc(-c2nn3c(c2-c2ccncc2)CN(C(=O)/C=C/CN(C)C)CC3)cc1 [Example 156] have IC50 strictly under 10 nM?
Reply | MET

Ask | IC50 strictly < 10 nM for this compound? C=CC(=O)N1C(C)c2c(-c3ccncc3)c(-c3ccc(Cl)cc3F)nn2C[C@@H]1C (single isomer, unassigned; isomer 1) [Example 292]
Reply | MET

Ask | Would you kindly verify if IC50 of C=CC(=O)N1CCn2nc(-c3ccc(OC(F)(F)F)cc3)c(-c3ccncc3)c2C1 [Example 129] is strictly less than 10 nM?
Reply | NOT MET

====

Please provide measured log10 of IC50 for the entries that follow.
# Test system: BA/F3 (insSVD) cells
# experimental details: Ba/F3-EGFR-insSVD cell survival assay (Cell Titer-Glo)
# Assay type: cell-based
# experimental context: Mus musculus, BaF3, 48 h, Table 3a, cell survival, Cell Titer-Glo, with 10 ng/ml EGF, without IL-3
Recall that a logarithmic scale is used here: each number is log10 of IC50 in nM.

Ask | What value of measured log10 of IC50 is listed for C=CC(=O)N1CCn2nc(-c3ccc(OC)cc3)c(-c3ccncc3)c2C1C (racemic) ?
Reply | 1.89

Ask | // lookup log10 of IC50 for CCc1cc(-c2nn3c(c2-c2ccncc2)CN(C(=O)/C=C/CN(C)C)CC3)ccc1Cl
Reply | 3.03

Ask | Give its log10 of IC50 value. Item: C=CC(=O)N1CCn2nc(-c3ccc(OC)c(F)c3)c(-c3ccnc4[nH]cc(C)c34)c2C1
Reply | 2.23

Ask | Fill in the blank: the reported log10 of IC50 of CN(C)C/C=C/C(=O)N1CCn2nc(-c3ccc(C(F)(F)F)cc3F)c(-c3ccncc3)c2C1 is ____.
Reply | 2.41

Ask | Would you mind telling me what log10 of IC50 value was observed for COc1ccc(-c2nn3c(c2-c2ccncc2)CN(C(=O)/C=C/CN(C)C)CC3)cc1 ?
Reply | 3.03

Ask | Could you tell me which log10 of IC50 is on file for O=C(/C=C/CN1CCC1)N1CCn2nc(-c3ccc(Cl)cc3F)c(-c3ccncc3)c2C1 ?
Reply | 1.41

Ask | Look at this molecule and give its reported log10 of IC50. C=CC(=O)N1Cc2c(-c3ccncc3)c(-c3ccc(F)cc3)nn2C(CC(N)=O)C1 (centres unmarked)
Reply | 2.53

Ask | Using the record for C=CC(=O)N1CCn2nc(-c3ccccc3Cl)c(-c3ccnc4[nH]cc(C)c34)c2C1 , report its log10 of IC50.
Reply | 2.42

Ask | Dear colleague, I am looking for the recorded log10 of IC50 of the following molecule: C=CS(=O)(=O)N1CCn2nc(-c3ccc(F)cc3)c(-c3ccncc3)c2C1
Reply | 2.88

Ask | I am curious: what log10 of IC50 value has been reported for C=CC(=O)N1CCn2nc(-c3ccc(F)c(C#N)c3)c(-c3ccncc3)c2C1 ?
Reply | 2.18

Ask | Can you look up the measured log10 of IC50 of O=C(/C=C/CO)N1CCn2nc(-c3ccc(F)cc3)c(-c3ccncc3)c2C1 for me?
Reply | 2.94

Ask | Which log10 of IC50 value is on record for C=CC(=O)N1CCn2nc(-c3ccc(OC)cc3)c(-c3ccnc4[nH]cc(C)c34)c2C1 ?
Reply | 2.36

Ask | Query: log10 of IC50; subject: C=CC(=O)N1CCn2nc(-c3ccccc3Cl)c(-c3ccncc3)c2C1
Reply | 2.16

Ask | # get_value(readout='log10 of IC50', item= C=CC(=O)N1CCn2nc(-c3ccc(F)c4ccoc34)c(-c3ccncc3)c2C1 )
Reply | 2.37

Ask | Endpoint output: log10 of IC50 of C=CC(=O)N1Cc2c(-c3ccncc3)c(-c3ccc(OC)cc3F)nn2CC1C (racemic) . Value?
Reply | 1.82

Ask | Which log10 of IC50 is reported for this molecule? C=CC(=O)N1CCn2nc(-c3ccc(Cl)cc3CO)c(-c3ccncc3)c2C1
Reply | 1.52

Ask | Item under review: C=C(C)C(=O)N1CCn2nc(-c3ccc(F)cc3)c(-c3ccncc3)c2C1 . Reported log10 of IC50?
Reply | 4.00

Ask | # log10 of IC50 lookup, item C=CC(=O)N1CCn2nc(-c3cccc(Cl)c3)c(-c3ccncc3)c2C1
Reply | 2.24

Ask | So what's the measured log10 of IC50 for this one? Cc1c[nH]c2nccc(-c3c(-c4ccc(Cl)cc4)nn4c3CN(C(=O)/C=C/CN(C)C)CC4)c12
Reply | 1.82

Ask | Suppose we examine the molecule Cc1c[nH]c2nccc(-c3c(-c4cccc(C(F)(F)F)c4)nn4c3CN(C(=O)/C=C/CN(C)C)CC4)c12 ; what log10 of IC50 value has been reported?
Reply | 1.84

Ask | Fill in the blank: the reported log10 of IC50 of O=C(/C=C/CN1CCOCC1)N1CCn2nc(-c3ccc(F)cc3)c(-c3ccncc3)c2C1 is ____.
Reply | 2.34

Ask | Look at this molecule and give its reported log10 of IC50. CN(C)C/C=C/C(=O)N1CCn2nc(-c3ccc(C(F)(F)F)cc3)c(-c3ccncc3)c2C1
Reply | 2.30

Ask | Field request: log10 of IC50 | item: O=C(/C=C/Cl)N1CCn2nc(-c3ccc(Cl)cc3F)c(-c3ccncc3)c2C1
Reply | 2.13

Ask | Consider the molecule shown here: C=CC(=O)N1CCn2nc(-c3ccccc3F)c(-c3ccncc3)c2C1 What is its recorded log10 of IC50?
Reply | 1.83

Ask | Given the molecule CN(C)C/C=C/C(=O)N1Cc2c(-c3ccncc3)c(-c3ccc(Cl)cc3)nn2CC1(C)C , what is its reported log10 of IC50?
Reply | 2.44

Ask | Give the measured log10 of IC50 of C=CC(=O)N1CCn2nc(-c3ccc(Cl)cc3Cl)c(-c3ccncc3)c2C1 .
Reply | 1.63

Ask | # lookup: log10 of IC50 of Cc1c[nH]c2nccc(-c3c(-c4ccc(F)cc4)nn4c3C(C)N(C(=O)/C=C/CN(C)C)CC4)c12 (single isomer, unassigned; isomer 2)
Reply | 2.20

Ask | Which log10 of IC50 value belongs to C=CC(=O)N1CCn2nc(-c3cccc(C#N)c3)c(-c3ccnc4[nH]cc(C)c34)c2C1 ?
Reply | 2.34

Ask | Item under review: C=CC(=O)N1Cc2c(-c3ccncc3)c(-c3ccc(F)cc3)nn2C(CCO)C1 (centres unmarked) . Reported log10 of IC50?
Reply | 1.26
